Listing of pIC50 toward CK1ε (Homo sapiens (Human), UniProt P49674), each taken from a published source.
pIC50: −log10 of the molar value.

- compound-string: "NCC(=O)N1CCC(n2c(C3CC3)nc(-c3ccc(F)cc3)c2-c2ccc3nc(NC(=O)c4cccc(-c5cccnc5)c4)cn3n2)CC1"
  pIC50: 8.24
- compound-string: "Cn1nc(-c2ccc(F)cc2)c(-c2ccc3nc(NC(=O)c4ccnc(F)c4)cn3n2)c1C1CCNCC1"
  pIC50: 8.59
- compound-string: "O=C(Nc1cn2nc(-c3c(-c4ccc(F)cc4)ncn3C3CCOCC3)ccc2n1)c1ccncc1"
  pIC50: 8.74
- compound-string: "CC(C)CNC(=O)N1CCn2c(c(C(N)=O)c(-c3ccccc3)c2C2CC2)C1"
  pIC50: 7.31
- compound-string: "c1ccc(-c2nc3ccc(N4CCNCC4)nn3c2-c2ccncc2)cc1"
  pIC50: 8.52
- compound-string: "O=C(Nc1cn2nc(-c3c(-c4cccc(F)c4)ncn3CC(F)F)ccc2n1)c1ccnc(F)c1"
  pIC50: 8.13
- compound-string: "Cc1nc(-c2ccc(F)cc2)c(-c2ccc3nc(NC(=O)c4ccnc(F)c4)cn3n2)n1C1CCN(CCC(F)(F)F)CC1"
  pIC50: 8.02
